// provenance: ChEMBL document CHEMBL1157043

tested on: L929; experiment: Cytotoxicity against mouse L929 cells assessed as change in cellular morphology at 12.5 to 25 ug/ml after 24 hrs […]; assay type: cell-based; settings: l929, 24 h
Reported Metric: Activity

Clc1ccc2c(c1)CN(CCN1COc3ccc(Cl)cc3C1)CO2: Toxic
Clc1cc(Cl)c2c(c1)CN(CCN1COc3c(Cl)cc(Cl)cc3C1)CO2: Toxic
Clc1ccccc1N1COc2c(Cl)ccc(Cl)c2C1: Toxic
Clc1ccc2c(c1)CN(c1ccccc1Cl)CO2: Toxic

----------
Exercise: for every item that follows, state its recorded MIC.
system: Sporothrix schenckii; test: Antimicrobial activity against Sporothrix schenckii after 24 hrs; type: functional
Give bare numbers, in µg/mL.

Examples from the recorded data:
Clc1ccc2c(c1)CN(c1ccccc1)CO2: 6.25
Cc1ccc(N2COc3ccc(Cl)cc3C2)cc1: 6.25

Note: attention shifts to another entry.
Prompt: Report MIC on Sporothrix schenckii for this entry: "Clc1ccc2c(c1)CN(c1ccccc1Cl)CO2"
Response: 6.25
